Biological target: HLA-A*23:01
Test: IEDB peptide-MHC binding, purified MHC/competitive/radioactivity; filed as Kd, often an IC50 or EC50 that approximates it; bounds were set here for any values at or beyond the usual limits of such assays
Conditions: source organism: SARS coronavirus Tor2
pKd: −log10 of the molar value.

| Sequence | Cmp | pKd |
| --- | --- | --- |
| GTDLEGKFY | ≤ | 4.11 |
| VMPLSAPTL | = | 5.19 |
| LYDANYFVCW | = | 7.61 |
| VFYLYLTFYF | = | 10.21 |
| GYVTHGFNL | = | 6.63 |
| EFLTRNPAW | ≤ | 4.07 |
| LVAEMDGIQY | ≤ | 4.15 |
| ATSRTLSYY | ≤ | 4.11 |
| HFAIGLALY | = | 4.94 |
| MFSPIVPFW | = | 7.53 |
| ADAGFMKQY | ≤ | 4.11 |
| YIAVNDKALY | ≤ | 4.26 |
| YFTNDVSFL | = | 4.74 |
| PYRVVVLSF | = | 7.68 |
| LFADINGKL | = | 5.89 |
| CFANKHAGF | = | 6.98 |
| SWFITQRNFF | = | 10.34 |
| GYTMHANYI | = | 5.16 |

src = the Immune Epitope Database (IEDB)
